Listing: growth of selected compounds
- Tested on: SF-539 CNS
- measurement.description: NCI-60 one-dose screen, 48 h (100 = growth as untreated, 0 = no growth, -100 = all killed)
- details: 10 µM unless noted
- Protocol: Cells are grown in 96 well plates and exposed to the test compound for 48 hours. Compounds are tested at a single concentration, which is 10^-5 M for most compounds. The reported endpoint is percent growth (GI% or GIPRCNT), where numbers from 0 - 100% represent growth inhibition, and numbers from -100% - 0 represent cell death. For example, a value of 40 represents 60% growth inhibition. A value of 0 means no net growth occurred over the course of the experiment. […]
The panel holds about 83,000 compounds, 20% with a hit somewhere; the sample as a whole holds those more often.
Number only, in %; omit the unit.

Solved cases (3 shown):
compound="COc1cc2c(cc1-c1c(C)noc1C)ncc1nc(C3CCC(F)(F)CC3)n(C3CCC(OC(F)F)CC3)c12 (centres undefined)" target_under_test="SF-539 CNS" reported_metric=growth assay_value=61.8
compound=CCCCc1ccc(Nc2ccc(Nc3ccc(CCCC)cc3S(=O)(=O)O)c3c2C(=O)c2ccccc2C3=O)c(S(=O)(=O)O)c1 target_under_test="SF-539 CNS" reported_metric=growth assay_value=96.5
compound=COc1cc(/C=N/n2c(CN3CCOCC3)nc3ccccc3c2=O)cc(OC)c1OC target_under_test="SF-539 CNS" reported_metric=growth assay_value=97.9

Query: growth; subject: "COC(=O)[C@]12CC[C@@H](C)[C@H](C)[C@@H]1C1=CC[C@@H]3[C@@]4(C)C(C=O)=C[C@@](C)(COC(C)=O)[C@@H]4C(=O)C[C@@]3(C)[C@]1(C)CC2" 53.7

====

- System: EKVX NSCLC
- measurement.description: NCI-60 one-dose screen, 48 h (100 = growth as untreated, 0 = no growth, -100 = all killed)
- details: 10 µM unless noted
About 83,000 compounds went through this panel and 20% of them were active in at least one assay; those are over-represented in the sample as a whole.
reported.metric: growth (%)
Number only, in %; omit the unit.

Solved cases (5 shown):
compound="CC1=C([Se]CC(OC(=O)CC[Se]c2ccccc2)C(=O)NCCCCCC(=O)OCc2ccccc2)C(=O)c2ccccc2C1=O (stereo not given)" quantity_unit=% assay_value=27.1
compound=Fc1cnc(NC2CC2)nc1-c1cnc2ccc(N3CCOCC3)cn12 quantity_unit=% assay_value=-19.5
compound=COC(=O)c1c2c(c(C)[n+]([O-])c1C)C(=O)C(NCc1ccc(F)cc1)=CC2=O quantity_unit=% assay_value=58.8
compound=N/C(=N\c1nc2ccccc2s1)NC(=O)Nc1cccc(Cl)c1 quantity_unit=% assay_value=49.7
compound="N#C/C(=C/C=C/c1cccc(Cl)c1)S(=O)c1ccccc1 (stereo not given)" quantity_unit=% assay_value=-56.3

Find growth (EKVX NSCLC) for the entry "Cc1cccc(Cc2cnc(NC(=O)/C=C/c3ccco3)s2)c1" 33.7

Find growth (EKVX NSCLC) for the entry "O=C(CCCCCCSc1nc(-c2ccccc2)cc(-c2ccc(Cl)cc2)n1)NO" 44.5

Find growth (EKVX NSCLC) for the entry N#CC1=C(/N=C/c2ccccc2)Oc2c(ccc3ccccc23)C1c1ccccc1 (stereo not given) 34.6

Find growth (EKVX NSCLC) for the entry "NC(=N\N=C/c1ccccc1[N+](=O)[O-])/C(N)=N\N=C/c1ccccc1[N+](=O)[O-]" 98.5

Find growth (EKVX NSCLC) for the entry "O=C(COc1ccc(/C=C2\Oc3ccccc3C2=O)cc1)Nc1nc2ccccc2s1" 42.8

====

- System: SK-MEL-28 melanoma
- measurement.description: NCI-60 one-dose screen, 48 h
- details: 10 µM unless noted
Compounds without any hit were thinned out: in the full panel of roughly 83,000, 20% have a hit. Active and inactive are the calls of the source. The calls were made as follows: active = growth percent below 10; inactive = the rest.
Answer with one of the outcomes class 1 = active, class 0 = inactive

Would you please look over these solved cases?
chemical_smiles=CNC(=O)c1cc(Oc2cccc3nc(Nc4ccc(F)c(Cl)c4)ccc23)ccn1 class_name="class 0"
chemical_smiles=COc1cccc(-c2nc3sccn3c2/C=C/C(=O)c2ccc(C(F)(F)F)cc2)c1 class_name="class 0"
chemical_smiles=Cc1ccc(-c2cc(-c3cccnc3)[nH]c(=O)c2C#N)cc1 class_name="class 0"
chemical_smiles=CCOC(=O)c1csc(NC(=O)COc2cccc(/C=C3\Oc4cc(OC)ccc4C3=O)c2)n1 class_name="class 0"

Dear colleague, could you share the recorded outcome for "N#Cc1c(N)nc(NCCO)nc1-c1ccc(F)cc1" when you have a moment? class 0

Dear colleague, could you share the recorded outcome for "O=C1Nc2ccccc2/C1=C/c1cn(C(=O)c2ccc(Cl)cc2)c2ccccc12" when you have a moment? class 0

Dear colleague, could you share the recorded outcome for "CCc1c2c(nc3ccc(OC(=O)NCc4ccc(B5OC(C)(C)C(C)(C)O5)cc4)cc13)-c1cc3c(c(=O)n1C2)COC(=O)[C@]3(O)CC" when you have a moment? class 1

Dear colleague, could you share the recorded outcome for "CCN(CC)c1nc(SCC(=O)Nc2nc3ccc(C)cc3s2)nc(-c2ccccc2)c1C#N" when you have a moment? class 0

Dear colleague, could you share the recorded outcome for "O=C1/C(=C\c2c[nH]c3ccccc23)c2ccccc2N1c1c(Cl)cccc1Cl" when you have a moment? class 1

Dear colleague, could you share the recorded outcome for "NC(=S)N/N=C/Cc1ccccc1" when you have a moment? class 0

====

- Test system: NCI-H226 lung
- measurement.description: NCI-60 one-dose screen, 48 h (100 = growth as untreated, 0 = no growth, -100 = all killed)
- details: 10 µM unless noted
This is part of a sample that, as a whole, favours compounds with a hit. Of some 83,000 tested, about 20% had one in any assay.
Outcome label depends on growth relative to 60%: at/above gives 1, below gives 0.

Would you please look over these solved cases?
molecule=C=C1C(=O)O[C@H]2[C@H]1CC/C(CNC(=O)/C=C/c1ccc(Cl)cc1Cl)=C\CC[C@@]1(C)O[C@@H]21 class_name=1
molecule="COc1cc(C2CC(c3ccc(Nc4ccnc5cc(Cl)ccc45)cc3)=NN2C=O)cc(OC)c1OC (stereo not drawn)" class_name=1

Given the entry "COc1cccc(-c2nn(-c3ccccc3)cc2-c2ccnc(NCCCNC(=O)c3cccc(C(F)(F)F)c3)c2)c1" , answer whether its growth meets or surpasses 60%. 0

Given the entry "COc1ccc(-c2csc(C3=C(O)CN(C(C)C)C3=N)n2)cc1OC" , answer whether its growth meets or surpasses 60%. 1

====

- Test system: NCI/ADR-RES ovarian
- measurement.description: NCI-60 one-dose screen, 48 h (100 = growth as untreated, 0 = no growth, -100 = all killed)
- details: 10 µM unless noted
- Description: Growth inhibition of the NCI/ADR-RES human […] tumor cell line is measured as a screen for anti-cancer activity. Cells are grown in 96 well plates and exposed to the test compound for 48 hours. Compounds are tested at a single concentration, which is 10^-5 M for most compounds. The reported endpoint is percent growth (GI% or GIPRCNT), where numbers from 0 - 100% represent growth inhibition, and numbers from -100% - 0 represent cell death. For example, a value of 40 represents 60% growth inhibition. […]
Compounds without any hit were thinned out: in the full panel of roughly 83,000, 20% have a hit.
reported.metric: growth (%)
Number only, in %; omit the unit.

Solved cases (3 shown):
compound=COc1ccc(C(=O)Nn2c(NCC(=O)N3c4ccccc4Sc4ccccc43)nnc2-c2ccc(O)cc2)cc1 assay_value=97.8
compound=O=C(NCCCNc1cc(-c2cn(-c3ccccc3)nc2-c2cccc(O)c2)ccn1)c1cccc(O)c1 assay_value=95
compound="CN(C)CC1C(=O)O[C@H]2[C@H]1CC/C(COC(=O)c1cc3ccccc3[nH]1)=C\\CC[C@@]1(C)O[C@@H]21 (some centres undefined)" assay_value=-30.8

Find growth (NCI/ADR-RES ovarian) for the entry "COc1ccc2[nH]c(O)c(/C=c3/cc4c(c(-c5cc(OC)c(OC)c(OC)c5)n3)=Nc3ccccc3-4)c2c1" 39.4

Find growth (NCI/ADR-RES ovarian) for the entry "O=C1/C(=C\c2cccnc2)SC(=S)N1CCc1ccc(O)cc1" 47.9

====

- Tested on: NCI-H460 lung
- measurement.description: NCI-60 one-dose screen, 48 h (100 = growth as untreated, 0 = no growth, -100 = all killed)
- details: 10 µM unless noted
The panel holds about 83,000 compounds, 20% with a hit somewhere; the sample as a whole holds those more often. Activity calls are given as the source filed them. Rule for the calls: active = growth percent below 10; inactive = the rest.
reported.metric: growth

Solved cases (6 shown):
molecule=COc1ccccc1CNCCCN1C(=O)c2ccc3c4c(ccc(c24)C1=O)C(=O)N(CCCNCCCCN)C3=O target_under_test="NCI-H460 lung" assay_value="-46.2% (active)"
molecule=CNC(=O)c1cc(Oc2cccc3nc(Nc4ccc(F)c(Cl)c4)ccc23)ccn1 target_under_test="NCI-H460 lung" assay_value="62.5% (inactive)"
molecule="CC1=C([Se]CC(OC(=O)CC[Se]c2ccccc2)C(=O)NCCCCCC(=O)OCc2ccccc2)C(=O)c2ccccc2C1=O (stereo unspecified)" target_under_test="NCI-H460 lung" assay_value="21.6% (inactive)"
molecule="Cc1ccc(C2SCC(=O)N2Cc2ccccc2)cc1 (stereo unspecified)" target_under_test="NCI-H460 lung" assay_value="115% (inactive)"
molecule=Nc1n[nH]c(-c2cc(Cl)ccc2O)c1-c1ccccc1 target_under_test="NCI-H460 lung" assay_value="102% (inactive)"
molecule=Cc1ccc(S(=O)(=O)n2cc(CNc3ccc(N4CCOCC4=O)cc3)c3ccccc32)cc1 target_under_test="NCI-H460 lung" assay_value="99.8% (inactive)"

Query: growth; subject: "CCN(CC)Cc1cccc(C(=O)OC)c1" 103% (inactive)

Query: growth; subject: "Cn1c(-c2c(N)n(Cc3ccc(C(F)(F)F)cc3)c3nc(C#N)c(C#N)nc23)nc2ccccc21" 4.01% (active)

Query: growth; subject: COc1ccc(C2=NN(C(=O)c3cc(OC)c(OC)c(OC)c3)C(c3ccc(Cl)cc3)C2)cc1OC (stereo unspecified) 14.3% (inactive)

Query: growth; subject: "NC[C@H](O)c1ccc(O)c(O)c1" 103% (inactive)

Query: growth; subject: "Cn1cc(-c2csc(-c3cccc(F)c3)n2)c2cccnc21" -59.6% [100 µM] (active)

Query: growth; subject: "CN(C)c1ccc(-c2cc(-c3ccc(Nc4nc(Nc5ccc(Cl)cc5)nc(Nc5ccc(Cl)cc5)n4)cc3)no2)cc1" 27.1% (inactive)

Query: growth; subject: "Oc1ccc(CN2CCC(N3CCOCC3)CC2)c2cccnc12" 10.8% (inactive)

Where do the numbers come from? From PubChem BioAssay (NCI).
